- ASSAY REMARKS: yeast display, Sf9 membrane polyspecificity reagent, FACS + sequencing; frameworks hold sequencing errors
ASSAY ENDPOINT: polyreactivity (PSR sort gate)

INSERT INTO results (sequence_content, result) VALUES
  ('QVQLVESGGGLVQAGGSLRLSCAASGITFWFYAMGWYRQAPGKERELVADITSGGSTYYADSVKGLFTISRDNAKNTVYLQMNSLKPEDTAVYYCAADSWDSLAGLWDWNGPYYYWGQGTQVTVSS', 'low polyreactivity'),
  ('QVQLVESGGGLVQAGGSLRLSCAASGRIYAVNAMRWYRQAPGKERELVARIRRIGGSTYYADSVKGRFTISRDNAKNTVYLQMNSMKPEDTAVYYCAKTLGRRHPGYDYWGQGTQVTVSS', 'high polyreactivity'),
  ('QVQLVESGGGLVQAGGSLRLSCAASGLTFRTYTMGWYRQAPGKERELVAAISSSGSTKYADSVKGRFTISRDNAKNTVYLQMICLKPEDTAVYYCAARGRIYFTQYGYWGQVTQVTVSS', 'high polyreactivity'),
  ('QVQLVESGGGLVQAGGSLRLRGAASGGILVGYAMGWYRQAPGKERELVAAINYSGGSTNYADSVKGRFTISRDNAKNTVYLQMNSLKPEDTAVYYCAARSTARYGYWGQGTQVTVSS', 'low polyreactivity'),
  ('QVQLVESGGGLVQAGGSLRLSCAATGSTFAVYSMGWYRQAPGKELELVATIRRNGGSTYYADSVKGRFTISRDNAKNTVYLQMNSLQPEDTAVYYCAARSRKRWGYNYWGQGTQVTVSA', 'high polyreactivity'),
  ('QVQLVESGGGLVQAGGSLRLSCAASGRTFDTYAMGWYRQAPWKERELVAAITRRTYYADSVKGRFTISRDNAKNSVYLQMNSLKPEDTAVYYCAVRFLRKWTSSRHYGYWGQGTQVTVSS', 'high polyreactivity'),
  ('QVQLVESGGGLVQAGGSLRLSCAASGRIFFVYAMGWYRQAPGKERELVAAISVSDVSTSYADSVKGRFTISRDNAKNTVYLQMNSLKPEDTAVYYFNAGFRFYTYSRIAGEDYGGQGTQVTVSS', 'low polyreactivity'),
  ('QVQLVESGGGLVQAGGSLRLSCAASGSTFRLYAMGWYRQAPGKERELVAVISRSGGRTYADSVKGRFTISRDNAKNTVYLQMNSLKPEDTAVYYCAKARHKSPTYTHDSWGQGTQVTVSS', 'high polyreactivity'),
  ('QVQLVESGAGLVQAGGSLRLSCAASGSIFWAYAMGWYRQAPGKERELVAAISRGGTTTYADSVKGRFTISRDNAKYTVYLQMNSLKPEDTAVYYCARQGTIYSYDIVYPRLDYWGQGTQVTVSS', 'low polyreactivity'),
  ('QVQLVESGGALVQAGGSLRLSCAASGRIFIVYAMRWYRQAPGKERELVASITSGASTNYADSVKGRFTISRDNAKNTVYLQMNSLKPEDTAVYDCNADGPGAYLSEFGYWGQGTQVTVSS', 'low polyreactivity'),
  ('QVQLVESGGGLVQAGGSLRISCAASGSNFPYYAMGWYRQAPWQERELVAAISRGGGTTYYADSVKGRFTISRDNAKNTVYLQMISLKPEDTAVYYCAARQWRISTPYDYWGQGTQVTVSS', 'high polyreactivity');

###

- ASSAY REMARKS: yeast display, Sf9 membrane polyspecificity reagent, FACS + sequencing; frameworks hold sequencing errors
ASSAY ENDPOINT: polyreactivity (PSR sort gate)

INSERT INTO measurements (sequence_content, result) VALUES
  ('QVQLVESGGGLVQAGGSLRLSCAASGSIFSSNTMGWYRPAPGKERELVAAITSGGGTYYADSVKGRFTISRDNAKNTVYLQMNSLKPEDTAVYYCAAQRVYKSSPSYDYWGQGTQVTVSS', 'low polyreactivity'),
  ('QVQLVESGGGLVQAGGSLRLSCAASGGIFVRYAMGWYRQAPGKERELVAAISSSGDRTYYADSVKGRFTISRDNAKNTVYLQMHSLKPEDTAVYYCNADRGHDKVDYWGQATQVTVSS', 'low polyreactivity'),
  ('QVQLVESGGGLVQAGGSLRLSCAASGGTFKLYAMGWYRQAPGKERELVAAISRRGGSTYYADSVKVRFTISRDNAKNTVYLQMNSLKPEDTAVYYCAAPGPTQSTQRGGYWGQGTQVTVSS', 'high polyreactivity'),
  ('QVQLVDSGGGLVQAGGSLRLSCADSGSINGNYVMGWYRQAPRKERELVAAIRWTGGSTYYADTVKGRFTISRDNAKNTVYLQMNSLKPEDTAVYYCNAESTYYPSGEDYWGQGTQVNVSS', 'high polyreactivity'),
  ('QVQLVESGGGLVQAGGSLRLSCAASGIIFYFYAMGWYRQAPGKERELVATITWSGTSTNYADSVKGRFTISRDNAKNTVYLQMNSLKPEDTAVYYCAARWPTGRNGYWGQGTQVTVSS', 'high polyreactivity'),
  ('QVQLVESGGGLVQAGGSLRLSCAASGSTFYPYAMGWYRQAPGKERELVAAISSGGSTNYADSVKGRFTISRDNAKYTVYLQMNSLKPEDTAVYYCAAASGSRRHGYWGQGTQVTVSS', 'high polyreactivity'),
  ('QVQLVESGGGLVQAGGSLRLSCAASGLTFGRNAMGWYRQAPGKERELVAAITFNGGSTYYADSVKGRFTISRDNAKNTVYIQMNSLKPEDTAVYYCAAPYYVYWTYPYRVLSYYYWGQGTQVTVSS', 'high polyreactivity'),
  ('QVQLVESGGCLVQAGGRLRLSFAASGLTFEQYAMGWYRQAPGKERELVPAISRRGTSTYYADSVKGRFTISRDNAKNTVFLQMNSLKPEDTAVYYCNAGWWYLGSPFDRDYWGQGTQVTVSS', 'high polyreactivity'),
  ('QDQLVESGGGLVQAGGSLRISCAASGITLEYNAMGGYRQAPGKERELVATIRSGGSTNYADSVKVRFTISRDNANNTVYLQMNSLKPEDTAVYYCAANHNTEYDWGQGTQVTVSS', 'high polyreactivity'),
  ('QVQLVESGGGLVQAGGSLRLSCAASGRTFNYNAMGWYRQAPGTERELVAAINYNGGSTYYADSVKGRFTISRDNAKNTVYLQMNSLKPEDTAVYYCAADQSTVLDVGSWGQGTQVTVSS', 'low polyreactivity');
